Target: LHRH (Rattus norvegicus, UniProt P30969)
Construct: endogenous in cells
Sequence (P30969 whole entry): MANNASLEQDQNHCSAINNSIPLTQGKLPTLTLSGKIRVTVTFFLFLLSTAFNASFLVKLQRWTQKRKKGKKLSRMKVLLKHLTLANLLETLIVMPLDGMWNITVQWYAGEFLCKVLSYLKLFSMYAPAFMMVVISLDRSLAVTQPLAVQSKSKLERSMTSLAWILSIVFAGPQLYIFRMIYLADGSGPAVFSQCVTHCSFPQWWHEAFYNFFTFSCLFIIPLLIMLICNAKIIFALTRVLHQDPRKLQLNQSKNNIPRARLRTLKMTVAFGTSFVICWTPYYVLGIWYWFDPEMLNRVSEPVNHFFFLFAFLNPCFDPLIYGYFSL
Assay: in vitro test for LHRH antagonist potency (pA2)
Type: cell-based
Conditions: negative logarithm of the antagonist concentration required to shift the response curve produced by the agonist leuprolide to two-fold higher concentration
Where a SMILES comes first, the peptide text is derived from it. [ ]: non-standard residue; d: D form. The star is where a group is joined. d2Nal(N,N-(CH2)3CO) = O=C1CCCN1[C@H](Cc1ccc2ccccc2c1)C(=O)*; Shikimoyl = O=C(C1=C[C@@H](O)[C@@H](O)[C@H](O)C1)*; dPhe(4-Cl) = N[C@H](Cc1ccc(Cl)cc1)C(=O)O; NMeY = CN[C@@H](Cc1ccc(O)cc1)C(=O)O; hArg = N=C(N)NCCCC[C@H](N)C(=O)O; d3Pal = N[C@H](Cc1cccnc1)C(=O)O
Test Readout: Kb (pM)
Lab book: enter the figure in pM, no units written.

Can you share its Kb? I mean this molecule: CC(C)C[C@H](NC(=O)[C@@H](CCCCNC(=O)C1=C[C@@H](O)[C@@H](O)[C@H](O)C1)NC(=O)[C@H](Cc1ccc(O)cc1)N(C)C(=O)[C@H](CO)NC(=O)[C@@H](Cc1cccnc1)NC(=O)[C@@H](Cc1ccc(Cl)cc1)NC(=O)[C@@H](Cc1ccc2ccccc2c1)N1CCCC1=O)C(=O)N[C@@H](CCCCNC(=N)N)C(=O)N1CCC[C@H]1C(=O)N[C@H](C)C(N)=O [Example 4] ({d2Nal(N,N-(CH2)3CO)}-[dPhe(4-Cl)][d3Pal]S[NMeY][dK](Shikimoyl)L[hArg]P[dA]-NH2) 6.92
